# testDetails: Paste air entrainment, Maximum air protocol
# cond: 50:50 fly ash M2 (LOI 5.34%):PCA paste; Air 30 (0.0125 wt %)/ND/X=1/4/4, X = the labelled SA
recordedEndpoint: Air entrained at 66 min

INSERT INTO results (compound, recordedendpoint, assayvalue) VALUES
  ('COCCO', 'Air entrained at 66 min', '8 vol %'),
  ('CCCCOCCOCCO', 'Air entrained at 66 min', '11 vol %'),
  ('CC(O)C(O)c1ccccc1 (stereo not drawn)', 'Air entrained at 66 min', '9 vol %'),
  ('OCC(O)CO', 'Air entrained at 66 min', '7 vol %'),
  ('OCCOc1ccccc1', 'Air entrained at 66 min', '11 vol %'),
  ('COC(C)COC(C)CO (stereo not drawn)', 'Air entrained at 66 min', '11 vol %');

----------
# testDetails: Second sacrificial agent testing protocol: paste air measurements with DDBS (0.0125 wt %) and rating
# cond: Portland cement paste (PCA); […]
Under this convention, satisfied denotes PCA + 0.1% SA (level of air entrainment by the candidate sacrificial agent) strictly below 1 and not satisfied denotes PCA + 0.1% SA (level of air entrainment by the candidate sacrificial agent) at or above 1.

INSERT INTO assay_data (compound, labelvalue) VALUES
  ('CCC(C)=O [2-Butanone (Methyl ethyl ketone)]', 'satisfied'),
  ('CCCCCCO [Hexanol]', 'satisfied'),
  ('CCCC=O [Butyraldehyde]', 'satisfied'),
  ('CCOCCO [Ethylene Glycol Ethyl Ether]', 'not satisfied'),
  ('CCCN(CCC)CCC [Tripropylamine]', 'satisfied'),
  ('COC(C)COC(C)CO (stereo not drawn) [Di-PGME, Di-propylene glycol methyl ether]', 'not satisfied'),
  ('CCCCOCCOCCO [Di-EGBE, Di-ethylene glycol butyl ether]', 'not satisfied'),
  ('Cc1ccc(S(=O)(=O)O)cc1 [p-Toluene Sulfonic acid]', 'satisfied'),
  ('C[S+](C)[O-] [Dimethylsulfoxide]', 'satisfied'),
  ('CCCCCC(=O)OCC [Ethylcaproate]', 'satisfied'),
  ('OCCOc1ccccc1 [EGPE, Ethylene glycol phenyl ether]', 'not satisfied');

----------
# testDetails: Precipitation in slurry extract or leachate
# Format: physicochemical
# cond: solution extracted from 10 wt % fly ash N (LOI 0.30%) slurry, pH 12.5; entries in parentheses
List of Precipitation (wt % precipitated) values.
recordedEndpoint: Precipitation (wt % precipitated)

INSERT INTO measurements (compound, assayvalue) VALUES
  ('NCc1ccccc1 [BA, Benzylamine]', '11 wt %'),
  ('O=C([O-])c1cccc2ccccc12.[Na+] [NA, 1-Naphthoic acid sodium salt]', '0 wt %'),
  ('OCCOc1ccccc1 [EGPE, Ethylene glycol phenyl ether]', '0 wt %'),
  ('O=S(=O)([O-])c1ccc2ccccc2c1.[Na+] [NS, Sodium 2-Naphthalene sulfonate]', '0 wt %');

----------
In this section we review reported Adsorption (wt % Adsorbed) values for a set of compounds.
# testDetails: Adsorption/precipitation of SA or AEA in 10 wt % aqueous fly ash or cement slurries at pH 12.5
# Format: physicochemical
# cond: 10 wt % fly ash C2 (LOI 3.32%) slurry, initial SA 3 mM
recordedEndpoint: Adsorption (wt % Adsorbed) (wt %)

INSERT INTO results (compound, measureunit, assayvalue) VALUES
  ('O=S(=O)([O-])c1ccc2ccccc2c1.[Na+] [NS, Sodium 2-Naphthalene sulfonate]', 'wt %', 5),
  ('OCCOc1ccccc1', 'wt %', 6),
  ('O=C([O-])c1cccc2ccccc12.[Na+] [NA, 1-Naphthoic acid sodium salt]', 'wt %', 4),
  ('NCc1ccccc1', 'wt %', 20);
